study_target: PLK4 (Homo sapiens)
Sequence (O00444 whole entry): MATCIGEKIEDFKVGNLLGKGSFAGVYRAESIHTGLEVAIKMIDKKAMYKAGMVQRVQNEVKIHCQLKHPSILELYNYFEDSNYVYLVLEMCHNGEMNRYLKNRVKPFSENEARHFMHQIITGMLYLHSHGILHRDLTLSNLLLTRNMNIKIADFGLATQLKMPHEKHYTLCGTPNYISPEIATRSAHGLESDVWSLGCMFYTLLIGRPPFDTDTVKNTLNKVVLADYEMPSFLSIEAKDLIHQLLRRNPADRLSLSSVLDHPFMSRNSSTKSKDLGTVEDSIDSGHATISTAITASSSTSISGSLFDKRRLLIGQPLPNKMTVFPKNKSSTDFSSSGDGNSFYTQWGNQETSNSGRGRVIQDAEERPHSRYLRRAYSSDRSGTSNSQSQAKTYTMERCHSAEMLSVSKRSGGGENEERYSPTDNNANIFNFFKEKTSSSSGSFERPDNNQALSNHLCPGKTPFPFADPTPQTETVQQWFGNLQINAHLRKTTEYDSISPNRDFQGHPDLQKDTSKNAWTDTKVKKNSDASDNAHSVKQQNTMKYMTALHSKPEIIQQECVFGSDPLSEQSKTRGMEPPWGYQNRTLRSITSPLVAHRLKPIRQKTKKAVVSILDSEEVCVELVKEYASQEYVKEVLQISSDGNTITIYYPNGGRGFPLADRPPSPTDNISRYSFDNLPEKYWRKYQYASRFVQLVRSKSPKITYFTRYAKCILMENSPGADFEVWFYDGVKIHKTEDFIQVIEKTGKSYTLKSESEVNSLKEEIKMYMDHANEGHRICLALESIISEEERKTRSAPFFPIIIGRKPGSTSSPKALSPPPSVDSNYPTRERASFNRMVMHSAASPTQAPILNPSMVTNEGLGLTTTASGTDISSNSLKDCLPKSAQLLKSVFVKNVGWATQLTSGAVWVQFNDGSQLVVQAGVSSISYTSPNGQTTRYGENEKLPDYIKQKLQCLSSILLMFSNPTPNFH
protocol_text: PLK4 NanoBRET target engagement assay
condition_parameters: HEK293 T cells transfected with PLK4 NanoLuc fusion vector; K-5 tracer; 2 hrs incubation
pIC50: −log10 of the molar value.
measurement_name: pIC50

# molecule, pIC50
records = [
    ("Cc1cc(Nc2nc(N(C)c3c(F)cc(S(C)(=O)=O)cc3F)nc(-c3cnn([C@H]4C[C@H](O)C4)c3)c2C2CC2)n[nH]1", 8.15),
]

a: COCCn1cc(-c2nc(N(C)c3c(F)cc(S(C)(=O)=O)cc3F)nc(Nc3cc(C)[nH]n3)c2C2CC2)c(C)n1
b: COCCn1ncc(-c2nc(N(C)c3cc(F)c(S(C)(=O)=O)cc3F)nc(Nc3cc(C)[nH]n3)c2C2CC2)c1C
c: Cc1ccn(-c2nc(N(C)c3ccc(S(C)(=O)=O)cc3F)nc(Nc3cc(C)[nH]n3)c2C2CC2)n1
d: Cc1cc(Nc2nc(N(C)c3c(F)cc(Cl)cc3F)nc(-c3cn(C)cn3)c2C2CC2)n[nH]1
In this exercise, place the 4 molecules in ascending sequence of their recorded pIC50. Answer format: list of labels, ordered as asked.
c, d, b, a

A: COc1c(Nc2cc(C)[nH]n2)nc(Sc2ccc(S(C)(=O)=O)cc2F)c(F)c1-c1cnn(C)c1
B: Cc1cc(Nc2nc(N(C)c3ccc(S(C)(=O)=O)cc3F)nc(-c3cn(C4CC4)cn3)c2C2CC2)n[nH]1
Smaller pIC50 value? Options are A and B Could you answer with the label of the item you picked?
A
(A: 6.77, B: 8.05)
